Source: patent US20240150377A1

- STUDY TARGET: CFTR (Homo sapiens, UniProt P13569)
- Sequence (P13569 with tags, fused parts or gaps DEL508-508): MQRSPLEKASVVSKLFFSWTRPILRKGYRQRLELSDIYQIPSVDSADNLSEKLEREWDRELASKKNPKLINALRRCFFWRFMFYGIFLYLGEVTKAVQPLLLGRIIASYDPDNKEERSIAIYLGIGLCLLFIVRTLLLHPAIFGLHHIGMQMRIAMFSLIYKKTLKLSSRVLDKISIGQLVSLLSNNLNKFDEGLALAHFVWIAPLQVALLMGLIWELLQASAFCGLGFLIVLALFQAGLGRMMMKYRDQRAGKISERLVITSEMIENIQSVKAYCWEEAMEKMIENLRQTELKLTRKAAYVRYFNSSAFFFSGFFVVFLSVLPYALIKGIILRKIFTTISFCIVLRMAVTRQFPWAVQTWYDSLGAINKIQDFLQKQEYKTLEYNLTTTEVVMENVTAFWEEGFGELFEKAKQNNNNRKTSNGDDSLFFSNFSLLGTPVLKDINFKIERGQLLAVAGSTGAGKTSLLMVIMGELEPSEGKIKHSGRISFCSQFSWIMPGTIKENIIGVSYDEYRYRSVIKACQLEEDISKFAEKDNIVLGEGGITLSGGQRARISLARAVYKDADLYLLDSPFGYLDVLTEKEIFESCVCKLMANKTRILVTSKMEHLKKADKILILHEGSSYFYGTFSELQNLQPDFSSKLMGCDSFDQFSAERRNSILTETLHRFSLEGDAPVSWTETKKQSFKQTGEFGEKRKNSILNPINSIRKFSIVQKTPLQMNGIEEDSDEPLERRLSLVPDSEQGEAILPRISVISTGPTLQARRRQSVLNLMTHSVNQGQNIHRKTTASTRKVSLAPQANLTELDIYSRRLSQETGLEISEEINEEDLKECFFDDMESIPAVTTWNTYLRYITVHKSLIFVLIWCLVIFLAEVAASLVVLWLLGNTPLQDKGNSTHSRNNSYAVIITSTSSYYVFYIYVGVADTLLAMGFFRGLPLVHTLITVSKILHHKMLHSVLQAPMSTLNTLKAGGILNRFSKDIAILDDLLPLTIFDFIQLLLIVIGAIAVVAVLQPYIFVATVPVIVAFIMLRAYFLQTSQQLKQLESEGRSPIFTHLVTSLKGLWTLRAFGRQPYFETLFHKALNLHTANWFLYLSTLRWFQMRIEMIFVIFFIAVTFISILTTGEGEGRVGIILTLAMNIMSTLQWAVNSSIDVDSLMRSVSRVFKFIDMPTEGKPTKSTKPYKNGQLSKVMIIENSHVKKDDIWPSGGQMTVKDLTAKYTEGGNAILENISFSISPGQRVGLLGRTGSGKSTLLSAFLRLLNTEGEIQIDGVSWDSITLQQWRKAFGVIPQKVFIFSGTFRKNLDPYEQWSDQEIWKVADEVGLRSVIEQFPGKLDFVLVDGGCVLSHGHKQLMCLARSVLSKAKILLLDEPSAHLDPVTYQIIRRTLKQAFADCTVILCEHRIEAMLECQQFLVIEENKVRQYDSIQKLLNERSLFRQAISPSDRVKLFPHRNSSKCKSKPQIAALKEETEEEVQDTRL
- PROCEDURE DETAILS: Membrane potential dye, Enteroid Assay A
- Assay type: cell-based
- TEST PARAMETERS: Table 7; chloride transport as % of triple combination control (Enteroid Assay A)
QUANTITY NAME: Ent. A Max Activity

> print(dat)
                                   compound                val
1  Cc1cccc(C)c1-c1cc2nc(n1)NS(=O)(=O)c1cccc(c1)C(=O)N(Cc1ccc(N3CCC(C)(C#N)CC3)nc1)[C@H](CC(C)C)CO2 [Compound 938]  +++ (+++ is >60%)
2  Cc1cccc(C)c1-c1cc2nc(n1)NS(=O)(=O)c1cccc(c1)C(=O)N(Cc1ccc(N3CCC(N(C)C)CC3)nc1)[C@H](CC(C)C)CO2 [Compound 945]  +++ (+++ is >60%)

====

Here, each record is paired with measured pEC50 data.
- STUDY TARGET: CFTR (Homo sapiens, UniProt P13569, DEL508-508)
- Construct: endogenous in cells; host or cells: primary human bronchial epithelial cells from CF subjects (F508del/MF-HBE), differentiated at air-liquid interface
- PROCEDURE DETAILS: HBE assay: Ussing chamber assay of CFTR-mediated short-circuit currents
- Format: cell-based
- TEST PARAMETERS: Table 11; read-out: HBE EC50
pEC50: −log10 of the molar value.
QUANTITY NAME: pEC50

MOLECULE	QUANTITY NAME	VAL
COCCN(C)c1ccnc(CN2C(=O)c3cccc(c3)S(=O)(=O)Nc3nc(cc(-c4c(C)cccc4C)n3)OC[C@H]2CC(C)(C)C)c1	pEC50	> 6.00
COc1cncc(CN2C(=O)c3cccc(c3)S(=O)(=O)Nc3nc(cc(-c4c(C)cccc4C)n3)OC[C@H]2CC(C)(C)C)n1	pEC50	> 6.00
Cc1cccc(C)c1-c1cc2nc(n1)NS(=O)(=O)c1cccc(c1)C(=O)N(CC1CCC(C)(C)CO1)[C@H](CC(C)(C)C)CO2 (single isomer, unassigned) [Compound 22]	pEC50	> 6.00

====

- STUDY TARGET: CFTR (Homo sapiens, UniProt P13569, DEL508-508)
- Construct: endogenous in cells; host or cells: primary human bronchial epithelial cells from CF subjects (F508del/MF-HBE), differentiated at air-liquid interface
- PROCEDURE DETAILS: HBE assay: Ussing chamber assay of CFTR-mediated short-circuit currents
- Assay type: cell-based
- TEST PARAMETERS: Table 13; read-out: HBE Max Activity (%)
QUANTITY NAME: Emax

> print(dat)
                                   molecule    val
1  Cc1cccc(C)c1-c1cc2nc(n1)NS(=O)(=O)c1cccc(c1)C(=O)N(Cc1nccc(N(C)C3CCC(C)(C)CC3)n1)[C@H](CC(C)(C)C)CO2  > 60%
2  COc1ccc(F)c(CN2C(=O)c3cccc(c3)S(=O)(=O)Nc3nc(cc(-c4c(C)cccc4C)n3)OC[C@H]2CC(C)(C)C)n1  > 60%
3  Cc1cccc(C)c1-c1cc2nc(n1)NS(=O)(=O)c1cccc(c1)C(=O)N(Cc1ccc3c(n1)N1CCOCC1C(C)C3)[C@H](CC(C)(C)C)CO2 (stereo partly drawn)  > 60%

====

- STUDY TARGET: CFTR (Homo sapiens, UniProt P13569, DEL508-508)
- Construct: endogenous in cells; host or cells: primary human bronchial epithelial cells from CF subjects (F508del/MF-HBE), differentiated at air-liquid interface
- PROCEDURE DETAILS: HBE2 assay: Ussing chamber assay of CFTR-mediated short-circuit currents
- Type: cell-based
- TEST PARAMETERS: 3 μM corrector; F508del/MF-HBE cells; with 44 nM potentiator, 18-24 hours, 20% human serum

COMPOUND	HBE2 Activity at 3 μM (%)
Cc1cccc(C)c1-c1cc2nc(n1)NS(=O)(=O)c1cccc(c1)C(=O)N(Cc1cncc(N(C)C3CCC3)n1)[C@@H]1CN(C3CC4(CC4)C3)C[C@H]1O2	+++ (+++ is >60+)
Cc1cccc(C)c1-c1cc2nc(n1)NS(=O)(=O)c1cccc(c1)C(=O)N(Cc1cncc(N(C)[C@H]3C[C@H](F)C3)n1)[C@H](CCC(C)C)CO2	+++ (+++ is >60+)
Cc1cccc(C)c1-c1cc2nc(n1)NS(=O)(=O)c1cccc(c1)C(=O)N(Cc1cncc(N(C)[C@@H]3CC[C@H]3C)n1)[C@H](CC(C)(C)C)CO2 (stereo in doubt)	+++ (+++ is >60+)
Cc1cccc(C)c1-c1cc2nc(n1)NS(=O)(=O)c1cccc(c1)C(=O)N(Cc1cnc(C)c(N(C)CC(C)C)n1)[C@H](CC(C)(C)C)CO2	+++ (+++ is >60+)
CCN(c1cncc(CN2C(=O)c3cccc(c3)S(=O)(=O)Nc3nc(cc(-c4c(C)cccc4C)n3)OC[C@H]2CCC(C)(C)C)n1)C1CCC1	+++ (+++ is >60+)
CCC(C)(C)C[C@@H]1COc2cc(-c3c(C)cccc3C)nc(n2)NS(=O)(=O)c2cccc(c2)C(=O)N1Cc1cncc(N(C)C2CCC2)n1 (single isomer, unassigned) [Compound 1330]	+++ (+++ is >60+)
Cc1cccc(C)c1-c1cc2nc(n1)NS(=O)(=O)c1cccc(c1)C(=O)N(Cc1cncc(N3CC[C@@H]3C(C)C)n1)[C@H](CC1CCCCC1)CO2 (stereo in doubt)	+++ (+++ is >60+)
Cc1cccc(C)c1-c1cc2nc(n1)NS(=O)(=O)c1cccc(c1)C(=O)N(Cc1cncc(N(C)CC(C)(C)C)n1)[C@H](CCC(C)(C)C)CO2	+++ (+++ is >60+)
Cc1cccc(C)c1-c1cc2nc(n1)NS(=O)(=O)c1cccc(c1)C(=O)N(Cc1cncc(N3CC[C@H]3C)n1)[C@H](CC(C)(C)F)CO2	+++ (+++ is >60+)
Cc1cccc(C)c1-c1cc2nc(n1)NS(=O)(=O)c1cccc(c1)C(=O)N(Cc1cncc(N(C)CC(C)C)n1)[C@H](CCC(C)(C)C)CO2	+++ (+++ is >60+)
Cc1cccc(C)c1-c1cc2nc(n1)NS(=O)(=O)c1cccc(c1)C(=O)N(Cc1cncc(N(C)C3CC4(CC4)C3)n1)[C@H](CCC(C)C)CO2	+++ (+++ is >60+)
Cc1cccc(C)c1-c1cc2nc(n1)NS(=O)(=O)c1cccc(c1)C(=O)N(Cc1cnc3cc(C(C)C)n(C)c3n1)[C@H](CCC(C)(C)C)CO2	+++ (+++ is >60+)
Cc1cccc(C)c1-c1cc2nc(n1)NS(=O)(=O)c1cccc(c1)C(=O)N(Cc1cncc(N3CC[C@H]4CC[C@H]43)n1)[C@H](CCC(C)(C)C)CO2 [Compound 1854]	+++ (+++ is >60+)
Cc1cccc(C)c1-c1cc2nc(n1)NS(=O)(=O)c1cccc(c1)C(=O)N(Cc1cnc3cc(C(C)C)n(C)c3n1)[C@H](COC1CC1)CO2	+++ (+++ is >60+)
Cc1cccc(C)c1-c1cc2nc(n1)NS(=O)(=O)c1cccc(c1)C(=O)N(Cc1cncc(N(C)CC(C)C)n1)[C@H](COC1CC1)CO2	+++ (+++ is >60+)
Cc1cccc(C)c1-c1cc2nc(n1)NS(=O)(=O)c1cccc(c1)C(=O)N(Cc1cncc(N3[C@H](C)CC[C@@H]3C)n1)[C@H](CCC(C)(C)C)CO2	+++ (+++ is >60+)
Cc1cccc(C)c1-c1cc2nc(n1)NS(=O)(=O)c1cccc(c1)C(=O)N(Cc1cncc(N3CCC[C@H]3C)n1)[C@H](COC(C)C)CO2	+++ (+++ is >60+)
Cc1cccc(C)c1-c1cc2nc(n1)NS(=O)(=O)c1cccc(c1)C(=O)N(Cc1cncc(N(C)C3CCC3)n1)[C@H](c1ccccc1)CO2	+++ (+++ is >60+)
Cc1cccc(C)c1-c1cc2nc(n1)NS(=O)(=O)c1cccc(c1)C(=O)N(Cc1cncc(N(C)C3CCC3)n1)[C@H](C[C@H]1CCCOC1)CO2 (stereo in doubt)	+++ (+++ is >60+)
Cc1cccc(C)c1-c1cc2nc(n1)NS(=O)(=O)c1cccc(c1)C(=O)N(Cc1cncc(N(C)C3CC(F)(F)C3)n1)[C@H](COC(C)C)CO2	+++ (+++ is >60+)
Cc1cccc(C)c1-c1cc2nc(n1)NS(=O)(=O)c1cccc(c1)C(=O)N(Cc1cncc(N(C)[C@H]3C[C@H](F)C3)n1)[C@H](CCC1CC1)CO2	+++ (+++ is >60+)
Cc1cccc(C)c1-c1cc2nc(n1)NS(=O)(=O)c1cccc(c1)C(=O)N(Cc1cncc(N3CCCC[C@H]3C)n1)[C@@H](C1CC(C)(C)C1)CO2	+++ (+++ is >60+)
